Test system: HCT116 (colorectal cancer cell line)
condition_context: 48 h
Ends that are not written are not given here.
property_measured: IC50

-- ask # return recorded IC50 for entry RRRRRRRRRRKMELGRELLNLW-NH2 (C-terminus assumed) [Polypeptide R9-RKL]
-- reply < 11 µM

* * *

Test system: SaoS2 (human osteosarcoma cells)
condition_context: 48 h
Ends that are not written are not given here.
property_measured: IC50

-- ask # return recorded IC50 for entry RRRRRRRRRRKMELGRELLNLW-NH2 (C-terminus assumed) [Polypeptide R9-RKL]
-- reply < 11 µM
